Value source: patent US7384935B2

- Test system: HT-29, SF268, MDA-MB-231 and PC-3
- procedureText: In vitro cytotoxic activity, four cell lines together (average / overall statement)
- conditionContext: read-out: In vitro Cytotoxic Activities GI50, Average; average of HT-29, SF-268, PC-3, MDA-MB-231
Exercise: for every item that follows, state its recorded GI50.
Lab book: enter the figure in µM, no units written.

Memo: CC(=O)Oc1cc(OC(C)=O)c2c(c1)N(C/C=C(\C)CC/C=C(\C)CCC=C(C)C)C(=O)c1cccc(O)c1N2 [D, reference compound] , reported GI50: 4.48

get_value(item= CC(=O)Oc1cccc2c1Nc1c(OC(C)=O)cc(O)cc1N(C/C=C(\C)CC/C=C(\C)CCC=C(C)C)C2=O [B, reference compound] , readout=GI50) returns 4.6

Reported GI50 for CC(=O)Oc1cc(O)c2c(c1)N(C/C=C(\C)CC/C=C(\C)CCC=C(C)C)C(=O)c1cccc(OC(C)=O)c1N2 [C, reference compound] was 8.72

What the record says about CC(=O)Oc1cc(OC(C)=O)c2c(c1)N(C/C=C(\C)CC/C=C(\C)CCC=C(C)C)C(=O)c1cccc(OC(C)=O)c1N2 [A, reference compound] : GI50 is 3.82

###

- Test system: SF268 (CNS)
- procedureText: In vitro cytotoxic activity (GI50), propidium iodide dye indicator
- Format: cell-based
- conditionContext: SF-268, 96 hrs incubation; read-out: In vitro Cytotoxic Activities GI50, SF-268
measure: GI50 (µM)
Record the value in µM, omitting the unit from your answer.

CC(=O)Oc1cc(O)c2c(c1)N(C/C=C(\C)CC/C=C(\C)CCC=C(C)C)C(=O)c1cccc(OC(C)=O)c1N2 [C, reference compound] yielded GI50 of 5.79

According to the records, this compound CC(=O)Oc1cccc2c1Nc1c(OC(C)=O)cc(O)cc1N(C/C=C(\C)CC/C=C(\C)CCC=C(C)C)C2=O [B, reference compound] displays GI50 of 1.88

Measured GI50, CC(=O)Oc1cc(OC(C)=O)c2c(c1)N(C/C=C(\C)CC/C=C(\C)CCC=C(C)C)C(=O)c1cccc(OC(C)=O)c1N2 [A, reference compound] : 1.95

GI50 reading for CC(=O)Oc1cc(OC(C)=O)c2c(c1)N(C/C=C(\C)CC/C=C(\C)CCC=C(C)C)C(=O)c1cccc(O)c1N2 [D, reference compound] : 2.02

###

- procedureText: physchem
measure: solubility

// solubility lookup, compound = `CC(C)=CCC/C(C)=C/CC/C(C)=C/CN1C(=O)c2cccc(OP(=O)(O)O)c2Nc2c(OP(=O)(O)O)cc(OP(=O)(O)O)cc21` , result: > 40 mg/mL

For record `CC(C)=CCCC(C)=CCCC(C)=CCN1C(=O)c2cccc(OP(=O)(O)OCc3ccccc3)c2Nc2c(OP(=O)(O)OCc3ccccc3)cc(OP(=O)(O)OCc3ccccc3)cc21.N.N.N` the listed solubility is > 40 mg/mL

Recorded result, `CC(C)=CCC/C(C)=C/CC/C(C)=C/CN1C(=O)c2cccc(O)c2Nc2c(OP(=O)(O)O)cc(O)cc21.N.N` , solubility: 5 mg/mL

###

- Tested on: HT-29 (colorectal carcinoma)
- procedureText: In vitro cytotoxic activity (GI50), propidium iodide dye indicator
- conditionContext: read-out: In vitro Cytotoxic Activities GI50, HT-29; HT-29, 96 hrs incubation
Kindly state GI50 for each of the entries shown.
// units = µM; emit number, no label

For reference, reported GI50 for CC(=O)Oc1cc(OC(C)=O)c2c(c1)N(C/C=C(\C)CC/C=C(\C)CCC=C(C)C)C(=O)c1cccc(OC(C)=O)c1N2 [A, reference compound] stands at 9.33

// sample CC(=O)Oc1cc(O)c2c(c1)N(C/C=C(\C)CC/C=C(\C)CCC=C(C)C)C(=O)c1cccc(OC(C)=O)c1N2 [C, reference compound] , its GI50 was 16

Quick note, GI50 for CC(=O)Oc1cccc2c1Nc1c(OC(C)=O)cc(O)cc1N(C/C=C(\C)CC/C=C(\C)CCC=C(C)C)C2=O [B, reference compound] landed at 12.6

Entry CC(=O)Oc1cc(OC(C)=O)c2c(c1)N(C/C=C(\C)CC/C=C(\C)CCC=C(C)C)C(=O)c1cccc(O)c1N2 [D, reference compound] , GI50 reported as 13

###

- Tested on: MDA-MB-231 (mammary gland adenocarcinoma)
- procedureText: In vitro cytotoxic activity (GI50), propidium iodide dye indicator
- Format: cell-based
- conditionContext: MDA-MB-231, 96 hrs incubation; read-out: In vitro Cytotoxic Activities GI50, MDA-MB-231
measure: GI50

For this compound ( CC(=O)Oc1cccc2c1Nc1c(OC(C)=O)cc(O)cc1N(C/C=C(\C)CC/C=C(\C)CCC=C(C)C)C2=O [B, reference compound] ), measured GI50 is 2.48 µM

For this compound ( CC(=O)Oc1cc(OC(C)=O)c2c(c1)N(C/C=C(\C)CC/C=C(\C)CCC=C(C)C)C(=O)c1cccc(OC(C)=O)c1N2 [A, reference compound] ), measured GI50 is 2.79 µM

The reported GI50 of the compound CC(=O)Oc1cc(OC(C)=O)c2c(c1)N(C/C=C(\C)CC/C=C(\C)CCC=C(C)C)C(=O)c1cccc(O)c1N2 [D, reference compound] was 1.55 µM

Sure, the documented GI50 for CC(=O)Oc1cc(O)c2c(c1)N(C/C=C(\C)CC/C=C(\C)CCC=C(C)C)C(=O)c1cccc(OC(C)=O)c1N2 [C, reference compound] is 7.72 µM
